Assay: Kinetic study: plasma kinetics of TMC278 after single IM or SC injection of a nanosuspension
Assay type: in vivo, male beagle dogs
Details: male, beagle, dog, plasma, sc, 5 mg/kg, plasma concentration of TMC278, single SC 5 mg/kg TMC278 nanosuspension, dog 19129, 72 h (d3)

>  <compound>
Cc1cc(C=CC#N)cc(C)c1Nc1ccnc(Nc2ccc(C#N)cc2)n1 [TMC278]

>  <scale_unit>
ng/mL

>  <concentration at 72 h>
26.1

$$$$

---

Experiment: Kinetic study: plasma kinetics of TMC278 after single IM or SC injection of a nanosuspension
Format: in vivo, male beagle dogs
Conditions: male, beagle, dog, plasma, intramuscular, 5 mg/kg, plasma concentration of TMC278, single IM 5 mg/kg TMC278 nanosuspension, dog 17264, 312 h (d13)
outcome_measure: concentration at 312 h

>  <compound>
Cc1cc(C=CC#N)cc(C)c1Nc1ccnc(Nc2ccc(C#N)cc2)n1 [TMC278]

>  <outcome_measure>
concentration at 312 h

>  <measurement>
33.4 ng/mL

$$$$

---

Experiment: Kinetic study: plasma kinetics of TMC278 after single IM or SC injection of a nanosuspension
Assay type: in vivo, male beagle dogs
Conditions: male, beagle, dog, plasma, sc, 5 mg/kg, plasma concentration of TMC278, single SC 5 mg/kg TMC278 nanosuspension, dog 19129, 312 h (d13)

>  <line_notation>
Cc1cc(C=CC#N)cc(C)c1Nc1ccnc(Nc2ccc(C#N)cc2)n1

>  <concentration at 312 h, ng/mL>
21.7

$$$$

---

Experiment: Kinetic study: plasma kinetics of TMC278 after single IM or SC injection of a nanosuspension
Type: in vivo, male beagle dogs
Conditions: male, beagle, dog, plasma, intramuscular, 5 mg/kg, plasma concentration of TMC278, single IM 5 mg/kg TMC278 nanosuspension, dog 17264, 384 h (d16)

>  <line_notation>
Cc1cc(C=CC#N)cc(C)c1Nc1ccnc(Nc2ccc(C#N)cc2)n1

>  <concentration at 384 h, ng/mL>
23.9

$$$$

---

Experiment: Kinetic study: plasma kinetics of TMC278 after single IM or SC injection of a nanosuspension
Assay type: in vivo, male beagle dogs
Details: male, beagle, dog, plasma, im, 5 mg/kg, single IM 5 mg/kg TMC278 nanosuspension, mean of 2 dogs; read-out: AUC0-696 h

>  <line_notation>
Cc1cc(C=CC#N)cc(C)c1Nc1ccnc(Nc2ccc(C#N)cc2)n1

>  <AUC(0-t)>
33.9 µg·h/mL

$$$$

---

Experiment: Kinetic study: plasma kinetics of TMC278 after single IM or SC injection of a nanosuspension
Format: in vivo, male beagle dogs
Conditions: male, beagle, dog, plasma, im, 5 mg/kg, single IM 5 mg/kg TMC278 nanosuspension, dog 18186; read-out: AUC0-696 h
outcome_measure: AUC(0-t) (ng·h/mL)

>  <compound>
Cc1cc(C=CC#N)cc(C)c1Nc1ccnc(Nc2ccc(C#N)cc2)n1 [TMC278]

>  <outcome_measure>
AUC(0-t)

>  <measurement>
33000

$$$$

---

Test: Kinetic study: plasma kinetics of TMC278 after single IM or SC injection of a nanosuspension;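 also: healthy male beagle dogs injected in both biceps femoris muscles (IM) or both thoracal sides (SC), total volume 0.2 mL/kg, drug measured in plasma from blood samples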
Assay type: in vivo, male beagle dogs
Details: male, beagle, dog, plasma, intramuscular, 5 mg/kg, plasma concentration of TMC278, single IM 5 mg/kg TMC278 nanosuspension, mean of 2 dogs, 648 h (d27)

>  <line_notation>
Cc1cc(C=CC#N)cc(C)c1Nc1ccnc(Nc2ccc(C#N)cc2)n1

>  <concentration at 648 h / ng/mL>
10.2

$$$$
